experiment: Half life in cancer patient at 30 mg, iv administered as infusion for 1 hr on days 1, 8 and 15 measured after 28 days; settings: human, in vivo
attributeMeasured: half-life at 672 h (h)
Return type: number; implicit unit h.

Dear colleague, please send me the reported half-life at 672 h for Cc1ccc(C(=O)N(CCCN)C(c2nc3snc(C)c3c(=O)n2Cc2ccccc2)C(C)C)cc1 (single isomer, unassigned; (+)) when you can. 16

* * *

Listing of recorded IC50 by entry.
Target: Kinesin-like protein KIF11 (Homo sapiens)
Sequence (P52732 whole entry): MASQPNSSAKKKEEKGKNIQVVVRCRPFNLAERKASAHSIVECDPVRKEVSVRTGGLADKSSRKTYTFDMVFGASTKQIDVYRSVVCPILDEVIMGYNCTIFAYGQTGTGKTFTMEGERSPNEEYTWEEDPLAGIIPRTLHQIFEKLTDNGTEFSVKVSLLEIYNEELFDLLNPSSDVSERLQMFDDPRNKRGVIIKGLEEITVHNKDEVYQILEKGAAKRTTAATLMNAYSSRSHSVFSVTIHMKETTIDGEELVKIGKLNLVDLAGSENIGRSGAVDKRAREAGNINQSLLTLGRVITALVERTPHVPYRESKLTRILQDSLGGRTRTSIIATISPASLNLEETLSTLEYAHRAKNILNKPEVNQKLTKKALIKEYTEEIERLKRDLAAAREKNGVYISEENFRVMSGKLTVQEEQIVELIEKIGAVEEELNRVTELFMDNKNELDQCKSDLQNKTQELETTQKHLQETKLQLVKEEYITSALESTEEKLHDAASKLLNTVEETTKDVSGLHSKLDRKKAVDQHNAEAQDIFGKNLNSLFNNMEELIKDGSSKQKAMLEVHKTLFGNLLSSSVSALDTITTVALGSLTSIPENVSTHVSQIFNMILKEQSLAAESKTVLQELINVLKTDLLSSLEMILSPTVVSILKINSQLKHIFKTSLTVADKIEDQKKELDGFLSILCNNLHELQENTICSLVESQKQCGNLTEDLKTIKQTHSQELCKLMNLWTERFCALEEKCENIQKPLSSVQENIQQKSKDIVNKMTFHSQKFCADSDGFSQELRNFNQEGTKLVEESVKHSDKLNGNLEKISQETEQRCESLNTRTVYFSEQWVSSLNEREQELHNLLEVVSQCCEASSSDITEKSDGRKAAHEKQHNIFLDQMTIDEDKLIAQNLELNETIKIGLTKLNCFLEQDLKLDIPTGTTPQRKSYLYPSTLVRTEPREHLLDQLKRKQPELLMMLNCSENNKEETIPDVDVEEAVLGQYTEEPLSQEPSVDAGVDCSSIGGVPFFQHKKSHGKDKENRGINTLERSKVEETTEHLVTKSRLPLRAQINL
Assay: Inhibition of Eg5 (unknown origin)
Express it in µM; write the number only.

molecule	experimentalSystem	recordedNumber
CON(C)C(=O)N1N=C(c2cc(F)ccc2F)S[C@@]1(CCCN)c1ccccc1 [FILANESIB]	Kinesin-like protein KIF11 (Homo sapiens)	0.006
O=C1[C@@H]2Cc3c([nH]c4ccccc34)[C@@H](c3cccc(O)c3)N2C(=O)N1Cc1ccccc1	Kinesin-like protein KIF11 (Homo sapiens)	0.65
CCC(c1nc2ccccc2n1Cc1ccccc1)N(CCCN(C)C)C(=O)c1ccc(Br)cc1 (centres undefined)	Kinesin-like protein KIF11 (Homo sapiens)	0.04

Next molecule, please.
Entry CCOC(=O)C1=C(C)NC(=S)NC1c1cccc(O)c1 (centres undefined) [MONASTROL] needs its IC50 filled in; supply it. 30

* * *

target: Kinesin-like protein KIF11 (Homo sapiens); assay: Ratio of monastrol IC50 to compound IC50 for Eg5 (unknown origin)
Attribute: Ratio IC50

compound	Ratio IC50
NCCC(=O)N1CCc2cc3c(cc2C1c1cccc(O)c1)OCO3 (centres undefined)	> 100
Cc1ccc(C(=O)N2CCc3cc4c(cc3C2c2cccc(O)c2)OCO4)cc1 (centres undefined)	> 100
O=C(c1ccc(O)cc1)N1CCc2cc3c(cc2C1c1cccc(O)c1)OCO3 (centres undefined)	> 100

Name the recorded Ratio IC50 of the compound listed here: `O=C1CCCC2=C1[C@H](c1cccc(O)c1)NC(=S)N2` 10

* * *

Target: UniProt:P52732
Sequence (P52732 whole entry): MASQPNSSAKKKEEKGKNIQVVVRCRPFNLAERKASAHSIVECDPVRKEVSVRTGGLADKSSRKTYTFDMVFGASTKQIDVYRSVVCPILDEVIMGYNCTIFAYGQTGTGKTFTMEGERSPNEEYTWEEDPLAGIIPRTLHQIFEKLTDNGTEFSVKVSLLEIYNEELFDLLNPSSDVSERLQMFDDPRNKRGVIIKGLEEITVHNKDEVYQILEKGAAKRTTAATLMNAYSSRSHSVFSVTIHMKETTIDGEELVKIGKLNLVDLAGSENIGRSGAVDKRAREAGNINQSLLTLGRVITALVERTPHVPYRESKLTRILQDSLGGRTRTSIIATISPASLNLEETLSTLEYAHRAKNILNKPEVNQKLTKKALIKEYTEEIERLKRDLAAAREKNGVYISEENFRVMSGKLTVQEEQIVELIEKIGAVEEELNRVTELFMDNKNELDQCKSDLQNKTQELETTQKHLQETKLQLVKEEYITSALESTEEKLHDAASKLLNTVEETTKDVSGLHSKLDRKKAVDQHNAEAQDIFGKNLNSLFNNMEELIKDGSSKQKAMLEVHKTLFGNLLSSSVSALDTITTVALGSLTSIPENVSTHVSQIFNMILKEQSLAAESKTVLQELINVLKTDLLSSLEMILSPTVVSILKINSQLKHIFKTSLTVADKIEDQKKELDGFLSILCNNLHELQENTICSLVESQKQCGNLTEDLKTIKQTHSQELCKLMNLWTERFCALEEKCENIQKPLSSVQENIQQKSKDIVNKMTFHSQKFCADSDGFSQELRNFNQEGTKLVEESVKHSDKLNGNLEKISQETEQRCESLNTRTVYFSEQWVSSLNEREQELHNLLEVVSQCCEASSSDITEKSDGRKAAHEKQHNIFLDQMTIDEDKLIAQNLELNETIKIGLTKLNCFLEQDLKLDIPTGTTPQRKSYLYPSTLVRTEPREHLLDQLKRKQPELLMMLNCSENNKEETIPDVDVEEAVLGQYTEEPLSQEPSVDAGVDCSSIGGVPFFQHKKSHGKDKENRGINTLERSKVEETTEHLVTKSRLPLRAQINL
Test: Inhibition of human recombinant Eg5 ATPase activity expressed in Escherichia coli after 30 mins by malachite green-based spectrophotometric analysis
pIC50: −log10 of the molar value.
Use 7 as the dividing line for pIC50, with the line itself on the true (1) side and lower values as false (0).

# example entries with known answers
molecule	assignedClass
Cc1cc2c(C(C)C)c(O)c(O)c(C=O)c2c(O)c1-c1c(C)cc2c(C(C)C)c(O)c(O)c(C=O)c2c1O [GOSSYPOL]	false (0)
NCCC(=O)N1CCc2cc3c(cc2C1c1cccc(O)c1)OCO3 (stereo not given)	true (1)
Cc1ccc(C(=O)N2CCc3cc4c(cc3C2c2cccc(O)c2)OCO4)cc1 (stereo not given)	true (1)

Could you now look at the following molecule, please?
Quick check: does O=C(c1ccc(O)cc1)N1CCc2cc3c(cc2C1c1cccc(O)c1)OCO3 (stereo not given) have pIC50 greater than or equal to 7? true (1)

* * *

test: Half life in solid tumor patient at 7 mg/m2 administered as infusion for 1 hr per week for 3 weeks; type: ADME, organism-based; conditions: human, in vivo, iv
attributeMeasured: half-life (h)
Use h as the unit, but write only the number.

Kindly indicate its recorded half-life. Item: CS(=O)(=O)O.Cc1ccc(C(=O)N(CCCN)[C@@H](c2nc3cc(Cl)ccc3c(=O)n2Cc2ccccc2)C(C)C)cc1 [ISPINESIB MESYLATE] 33

* * *

assay: clinical; details: human, in vivo, iv, 16 mg/day
Description: Half life in acute myeloid leukemia patient at 16 mg/day administered as infusion for 1 hr on 3 consecutive days measured after 2 weeks
attributeMeasured: half-life at 336 h (h)
Kindly answer with a numeric value in h, unit omitted.

Recall and state the measured half-life at 336 h for Cc1ccc(C(=O)N(CCCN)C(c2nc3snc(C)c3c(=O)n2Cc2ccccc2)C(C)C)cc1 (single isomer, unassigned; (+)) . 17

* * *

biological target: Kinesin-like protein KIF11 (Homo sapiens); assay: Inhibition of human His-tagged Eg5 (1 to 368 amino acid residues) basal ATPase activity
attributeMeasured: IC50
// unit must come after the numeric part

Complete the entry with IC50 for `O=C1CCCC2=C1[C@H](c1cc(O)ccc1Br)NC(=S)N2` 350 nM

* * *

molecular target: Kinesin-like protein KIF11 (Homo sapiens); experiment: Inhibition of human Eg5 assessed as inhibition of microtubule-induced ATPase activity
attributeMeasured: pIC50
Answer as the number alone; pIC50 is minus log10 of concentration in mol/L.

Tell me measured pIC50 for CC(C)(O)[C@@H]1C[C@@H](O)[C@]2(C)[C@H](CC[C@@]3(C)[C@H]2CC[C@H]2Cc4c([nH]c5ccccc45)[C@@]23C)O1 [TERPENDOLE E] please. 4.64
